# subject of test: biotinylated labeled human GPC3 protein (produced in-house) (human, UniProt P51654 25-559, limits assumed, biotinylated (Dojindo, Cat. No. LK03); sites not stated)
# experiment description: ELISA, biotinylated human GPC3 protein
Form field: OD450 at 0.004 nM (one value per entry).
Entry rule: numbers only, all in OD450.

Example entries and their recorded answers appear below.
[[record]]
binder = "hAb003LH2L1a (antibody, human IgG1, V domains shown, Humanized F2.154.1; VH H2 + VL L1a; expressed as human IgG1) VH: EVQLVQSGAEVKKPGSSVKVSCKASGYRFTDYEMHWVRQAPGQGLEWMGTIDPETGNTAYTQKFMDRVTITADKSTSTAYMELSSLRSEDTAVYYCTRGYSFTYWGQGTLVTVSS VL: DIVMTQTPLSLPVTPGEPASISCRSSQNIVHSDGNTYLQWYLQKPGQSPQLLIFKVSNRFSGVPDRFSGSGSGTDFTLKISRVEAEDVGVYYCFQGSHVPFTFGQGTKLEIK"
measured_parameter = "OD450 at 0.004 nM"
reading_unit = "OD450"
data_value = 0.146

[[record]]
binder = "hAb006LH1L1 (antibody, human IgG1, V domains shown, Humanized F3.38.7; VH H1 + VL L1; expressed as human IgG1) VH: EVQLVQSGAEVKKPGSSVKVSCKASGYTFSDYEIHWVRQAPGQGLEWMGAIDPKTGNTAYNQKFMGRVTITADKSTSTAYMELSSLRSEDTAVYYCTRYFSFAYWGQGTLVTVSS VL: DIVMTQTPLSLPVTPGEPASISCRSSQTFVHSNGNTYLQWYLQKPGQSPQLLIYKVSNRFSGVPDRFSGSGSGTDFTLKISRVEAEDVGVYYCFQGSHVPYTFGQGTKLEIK"
measured_parameter = "OD450 at 0.004 nM"
reading_unit = "OD450"
data_value = 0.365


Look up OD450 at 0.004 nM: hAb003LH1L1 (antibody, human IgG1, V domains shown, Humanized F2.154.1; VH H1 + VL L1; expressed as human IgG1) VH: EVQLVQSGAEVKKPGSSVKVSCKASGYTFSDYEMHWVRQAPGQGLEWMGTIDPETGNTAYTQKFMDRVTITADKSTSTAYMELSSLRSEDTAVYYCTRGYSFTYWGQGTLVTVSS VL: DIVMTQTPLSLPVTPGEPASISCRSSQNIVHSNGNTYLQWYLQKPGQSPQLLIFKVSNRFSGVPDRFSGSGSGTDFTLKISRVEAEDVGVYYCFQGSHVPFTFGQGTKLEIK 0.427
